# Tested on: Mycobacterium tuberculosis
# EXPERIMENT_DESCRIPTION: Antimycobacterial activity against dormant Mycobacterium tuberculosis H37Rv model assessed as log reduction at 10 ug/ml incubated for 7 days measured after 28 days in presence of nutrient deprived condition
# Assay type: functional
Recorded FC, one value per entry.
Number only, please.

// worked examples, FC included
{"COMPOUND_STRUCTURE": "NC(=O)c1c(NC(=O)c2ccc(Cl)cc2)sc2c1CCN(Cc1ccccc1)C2", "FC": 2}
{"COMPOUND_STRUCTURE": "N=C1S/C(=C\\c2ccc(OCc3ccccc3)cc2)C(=O)N1c1ccc(Cl)cc1Cl", "FC": 2}

Consider the additional molecule presented here.
Please report the recorded FC for `N=C1S/C(=C\c2ccc(OCc3ccccc3)cc2)C(=O)N1c1ccccc1[N+](=O)[O-]` .
2
